Exercise: for every item that follows, state its recorded EC50.
subject.of.test: human FXR alpha ligand binding domain (Homo sapiens, UniProt Q96RI1)
Sequence (Q96RI1 187-472 isoform Q96RI1-2): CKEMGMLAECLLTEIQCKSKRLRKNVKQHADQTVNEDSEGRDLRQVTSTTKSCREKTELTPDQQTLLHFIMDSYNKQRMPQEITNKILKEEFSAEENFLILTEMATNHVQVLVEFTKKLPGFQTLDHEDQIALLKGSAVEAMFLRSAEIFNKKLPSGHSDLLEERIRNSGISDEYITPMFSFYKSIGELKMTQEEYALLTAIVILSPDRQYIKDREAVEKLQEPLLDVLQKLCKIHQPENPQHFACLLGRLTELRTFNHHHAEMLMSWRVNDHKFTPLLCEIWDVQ
experiment: FRET activity assay (ligand mediated cofactor peptide interaction, LANCE)
cond: GST-FXR-LBD / biotinylated SRC-1 peptide (676-700)
Protocol: Determination of a ligand mediated cofactor peptide interaction to quantify ligand binding to the nuclear receptor FXR was performed as follows. Preparation of human FXR alpha ligand binding domain: The human FXRalpha LBD was expressed in E. coli strain BL21(DE3) as an N-terminally GST tagged fusion protein. The DNA encoding the FXR ligand binding domain was cloned into vector pDEST15 (Invitrogen). Expression was under control of an IPTG inducible T7 promoter. […] The protein was analysed by SDS-Page. […]
Record the value in nM, omitting the unit from your answer.

Exercise: Give a short answer stating reported EC50 for O=C(O)CNC(=O)c1cnc(N2CC(O)(c3ccc(OCc4c(-c5c(Cl)cc(F)cc5Cl)noc4C4CC4)cc3Cl)C2)c(F)c1 [Example 8] .
Key: 8.1

Exercise: Tell me EC50 reported for Cc1onc(-c2c(Cl)cc(F)cc2Cl)c1COc1ccc(C2(O)CN(c3ncc(C(=O)O)cc3F)C2)c(Cl)c1 [Example 4]
Key: 35

Exercise: Answer with the recorded EC50 of O=C(O)c1cnc(N2CC(O)(c3ccc(OCc4c(-c5c(Cl)cc(F)cc5Cl)noc4C4CC4)cc3Cl)C2)c(F)c1 [Example 3] only.
Key: 7.4

Exercise: Provide measured EC50 value, entry: COc1ncc(C(=O)O)cc1[C@H]1C[C@](O)(c2ccc(OCc3c(-c4c(Cl)cc(F)cc4Cl)noc3C3CC3)cc2Cl)C1 [Example 6]
Key: 49

Exercise: Answer with reported EC50 of O=C(NCCS(=O)(=O)O)c1cnc(N2CC(O)(c3ccc(OCc4c(-c5c(Cl)cc(F)cc5Cl)noc4C4CC4)cc3Cl)C2)c(F)c1 [Example 7]
Key: 6.9

Exercise: Tell us which EC50 value is on record for O=C(O)c1ccnc(N2CC(O)(c3ccc(OCc4c(-c5c(Cl)cc(F)cc5Cl)noc4C4CC4)cc3Cl)C2)c1 [Example 2]
Key: 25

Exercise: Please indicate EC50 recorded for O=C(O)c1ccnc(N2CC(O)(c3ccc(OCc4c(-c5ccc(F)cc5F)noc4C4CC4)cc3Cl)C2)c1 [Example 1]
Key: 263

Exercise: # return recorded EC50 for entry O=C(O)c1cnc(N2CC(O)(c3ccc(OCc4c(C5CC5)cnn4-c4c(Cl)cc(F)cc4Cl)cc3Cl)C2)c(F)c1 [Example 5]
Key: 18
